Every entry's value here was drawn from patent US20260146035A1.

Target: human MER (528-end) (Homo sapiens, UniProt Q12866)
Construct: human MER (528-end); purchased Camnabio, Japan
Sequence (Q12866 528-999 limits assumed): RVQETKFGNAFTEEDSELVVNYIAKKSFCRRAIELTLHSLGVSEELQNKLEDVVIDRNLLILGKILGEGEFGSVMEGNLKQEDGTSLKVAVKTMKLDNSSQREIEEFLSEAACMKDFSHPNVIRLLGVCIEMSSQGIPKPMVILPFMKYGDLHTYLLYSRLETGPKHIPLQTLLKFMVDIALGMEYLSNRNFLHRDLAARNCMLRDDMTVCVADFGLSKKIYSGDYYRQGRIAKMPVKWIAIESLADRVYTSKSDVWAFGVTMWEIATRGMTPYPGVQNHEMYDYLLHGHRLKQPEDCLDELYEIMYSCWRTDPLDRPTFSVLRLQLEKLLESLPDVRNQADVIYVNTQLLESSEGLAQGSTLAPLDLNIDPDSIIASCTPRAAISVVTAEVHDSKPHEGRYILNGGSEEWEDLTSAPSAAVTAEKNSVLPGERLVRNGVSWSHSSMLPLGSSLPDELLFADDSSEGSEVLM
Experiment: HTRF kinase activity biochemical assay, MER
Conditions: 10 μM ATP, 30 minutes pre-incubation; read-out: HTRF MERTK IC50
pIC50: −log10 of the molar value.
Entries and their measured pIC50 follow.

CC1(C)CN(C2CCN(CCO)CC2)c2ccc(-c3ccc(CO[C@H]4COC[C@@H]4NC(=O)c4cc(-c5cncc(F)c5)cnc4N)cc3)cc21 [Example 44] = > 8.00
CN1CCC(C(=O)NC2Cc3ccc(-c4ccc(CO[C@H]5CCC[C@@H]5NC(=O)c5cc(-c6cnn(C)c6)cnc5N)cc4)cc3C2)CC1 (stereo partly drawn) [Example 10] = > 8.00
CC1(C)CN(C2CCN(CCO)CC2)c2ccc(-c3ccc(CO[C@H]4CCC[C@@H]4NC(=O)c4nc(-c5ccc(F)nc5)cnc4N)cc3)cc21 [Example 41] = > 8.00
Cn1cc(-c2cnc(N)c(C(=O)N[C@H]3CCC[C@@H]3OCc3ccc(-c4ccc5c(c4)CC[C@@H]5N4CCN5C[C@H](O)C[C@H]5C4)cc3)c2)cn1 [Example 161] = > 8.00
COc1ccnc(N)c1C(=O)N[C@H]1CCC[C@@H]1OCc1ccc(-c2ccc3c(c2)CC[C@@H]3N2CCN(CCO)CC2)cc1 [Example 137] = > 8.00
Cn1cc(-c2cnc(N)c(C(=O)N[C@H]3CCC[C@@H]3OCc3ccc(-c4ccc5c(c4)CCC5N4CCN(CC(O)CO)CC4)cc3)c2)cn1 (stereo partly drawn) [Example 81] = > 8.00
Cn1cc(-c2cnc(N)c(C(=O)N[C@H]3CCC[C@@H]3OCc3ccc(-c4ccc5c(c4)CC[C@@H]5N4CCN(CC(O)CO)CC4)cc3)c2)cn1 (stereo partly drawn) [Example 98] = > 8.00
CC1(C)C[C@H](N2CCN(C[C@H](O)CO)CC2)c2ccc(-c3ccc(CO[C@H]4CCC[C@@H]4NC(=O)c4cc(-c5cccnc5F)cnc4N)cc3)cc21 [Example 168] = > 8.00
Cc1nn(C)cc1-c1cnc(N)c(C(=O)N[C@H]2COC[C@@H]2OCc2ccc(-c3ccc4c(c3)C(C)(C)CN4C3CCN(CCO)CC3)cc2)c1 [Example 42] = > 8.00
Cn1cc(-c2cnc(N)c(C(=O)N[C@H]3CCC[C@@H]3OCc3ccc(-c4cccc5cc[nH]c45)cc3)c2)cn1 [Example 29] = 7.00 to 8.00

QUERY: Which pIC50 is reported for this compound? Nc1ncc(-c2cncs2)cc1C(=O)N[C@H]1CCC[C@@H]1OCc1ccc(-c2ccc3c(c2)CC[C@@H]3N2CCN(CCO)CC2)cc1 [Example 176]
RESULT: > 8.00

QUERY: State the recorded pIC50 for this entry: Cn1cc(-c2cnc(N)c(C(=O)N[C@H]3CCC[C@@H]3OCc3ccc(-c4ccc5c(n4)C(C)(C)CN5C4CCN(CCO)CC4)cc3)c2)cn1 [Example 113]
RESULT: > 8.00

QUERY: Endpoint output: pIC50 of Nc1ncc(-c2cccnc2F)cc1C(=O)N[C@H]1CCC[C@@H]1OCc1ccc(-c2ccc3c(c2)CCC[C@@H]3N2CCN(CCO)CC2)cc1 [Example 165] . Value?
RESULT: > 8.00

QUERY: Recorded pIC50 for Nc1ncc(-c2cncc(F)c2)cc1C(=O)N[C@H]1CCC[C@@H]1OCc1ccc(-c2ccc3c(c2)CCCC3N2CCN(CCO)CC2)cc1 (stereo partly drawn) [Example 123] , please?
RESULT: > 8.00

QUERY: I have this compound here, Cn1cc(-c2cnc(N)c(C(=O)N[C@H]3CCC[C@@H]3OCc3ccc(-c4ccc5c(ccn5CCC(=O)O)c4)cc3)c2)cn1 [Example 58] , and I need its recorded pIC50.
RESULT: 7.00 to 8.00

QUERY: Quick one: pIC50 for Nc1ncc(-c2ccc(F)nc2)cc1C(=O)N[C@H]1CCC[C@@H]1OCc1ccc(-c2ccc3c(ccn3C3CCN(CCO)CC3)c2)cc1 [Example 22] ?
RESULT: > 8.00

QUERY: # get_value(readout='pIC50', item= Cn1cc(-c2cnc(N)c(C(=O)N[C@H]3CCC[C@@H]3OCc3ccc(-c4ccc5c(ccn5C5CCN(C(=O)OC(C)(C)C)CC5)c4)cc3)c2)cn1 [Example 4] )
RESULT: < 6.00

QUERY: Fill in: pIC50 of Cn1cc(-c2cnc(N)c(C(=O)N[C@H]3COC[C@@H]3OCc3ccc(-c4ccc5c(c4)C(C)(C)CN5C4CCN(CCO)CC4)cc3)c2)cn1 [Example 32] is ___
RESULT: > 8.00

QUERY: Find the recorded pIC50 belonging to Cn1cc(-c2cnc(N)c(C(=O)N[C@H]3CCC[C@@H]3OCc3ccc(-c4ccc5c(c4)CC(F)(F)C5N4CCN(CC(O)CO)CC4)cc3)c2)cn1 (mixture of isomers) [Example 59] and report it.
RESULT: > 8.00

QUERY: Need pIC50 of Nc1ncc(-c2ccc(F)nc2)cc1C(=O)N[C@H]1CCC[C@@H]1OCc1ccc(-c2ccc3c(c2)C2(CC2)CN(C2CCN(CCO)CC2)C3)cc1 [Example 75] , thanks.
RESULT: < 6.00

QUERY: What measured pIC50 goes with Cn1cc(-c2cnc(N)c(C(=O)N[C@H]3CCC[C@@H]3OCc3ccc(-c4ccc5c(ccn5CCO)c4)cc3)c2)cn1 [Example 57] ?
RESULT: > 8.00

QUERY: Any idea what pIC50 was measured for Cc1[nH]c2ccc(-c3ccc(CO[C@H]4CCC[C@@H]4NC(=O)c4cc(-c5cnn(C)c5)cnc4N)cc3)cc2c1C [Example 55] ?
RESULT: 7.00 to 8.00

QUERY: Requested field: pIC50. Item: Cn1cc(-c2cnc(N)c(C(=O)N[C@H]3CCC[C@@H]3OCc3ccc(-c4ccc5c(c4)C4(CCOC4)CN5C4CCN(CCO)CC4)cc3)c2)cn1 (stereo partly drawn) [Example 43]
RESULT: > 8.00

QUERY: Find the recorded pIC50 belonging to CC1(C)CN(C2CCN(CCO)CC2)c2ccc(-c3ccc(CO[C@H]4COC[C@@H]4NC(=O)c4nc(-c5ccc(F)nc5)cnc4N)cc3)cc21 [Example 52] and report it.
RESULT: > 8.00
